system: Rattus norvegicus; assay: Antidiabetic effect in streptozo-nicotinamide rat model of diabetes assessed as change in blood glucose level at 100 mg/kg, po after 3 hrs relative to control; format: functional
value type: Activity (%)

1. CC(=O)Nc1ccc(S(=O)(=O)Nc2nc3ccc([N+](=O)[O-])cc3s2)cc1	11.8
2. Cc1ccc2nc(NS(=O)(=O)c3ccc(Cl)cc3)sc2c1	36.1
3. COc1ccc2nc(NS(=O)(=O)c3ccccc3)sc2c1	62.9
4. COc1ccc(Cl)cc1C(=O)NCCc1ccc(S(=O)(=O)NC(=O)NC2CCCCC2)cc1 [GLYBURIDE]	32.6
5. COc1ccc(S(=O)(=O)Nc2nc3ccc([N+](=O)[O-])cc3s2)cc1	49
6. COc1ccc2nc(NS(=O)(=O)c3ccc([N+](=O)[O-])cc3)sc2c1	42.5
